Reported pIC50 values are given for each entry in this list.
System: ECa-109 cell line
TEST_METHOD_NOTES: Antiproliferative activity against human ECA109 cells after 48 hrs by MTT assay
Format: functional, cell-based
CONDITION_LABEL: ECa-109, 48 h
Note: pIC50 values are expressed as the negative base-10 logarithm of concentration in M.

>>> endpoint_result("C=C1C(=O)[C@]23[C@H](O)[C@H]1C[C@H](O)[C@H]2[C@]12CCCC(C)(C)[C@H]1C[C@H]3O[C@@H]2OCCc1cn(Cc2ccc([N+](=O)[O-])cc2)nn1")
5.38
>>> endpoint_result("C=C1C(=O)[C@]23[C@H](O)[C@H]1CC[C@H]2[C@@]12CO[C@]3(O)[C@@H](O)[C@@H]1C(C)(C)CC[C@@H]2O")
4.50
>>> endpoint_result("C=C1C(=O)[C@]23[C@H](O)[C@H]1C[C@H](O)[C@H]2[C@]12CCCC(C)(C)[C@H]1C[C@H]3O[C@@H]2OCCn1cc(CCCC)nn1")
5.35
>>> endpoint_result("C=C1C(=O)[C@]23[C@H](O)[C@H]1C[C@H](O)[C@H]2[C@]12CCCC(C)(C)[C@H]1C[C@H]3O[C@@H]2OCCc1cn(Cc2ccc(F)cc2)nn1")
5.43
>>> endpoint_result("C=C1C(=O)[C@]23[C@H](O)[C@H]1C[C@H](O)[C@H]2[C@]12CCCC(C)(C)[C@H]1C[C@H]3O[C@@H]2OCCc1cn(Cc2ccccc2)nn1")
5.45
>>> endpoint_result("C=C1C(=O)[C@]23[C@H](O)[C@H]1C[C@H](O)[C@H]2[C@]12CCCC(C)(C)[C@H]1C[C@H]3O[C@@H]2OCCc1cn(Cc2ccc(Cl)cc2)nn1")
5.57
>>> endpoint_result("C#CCO[C@H]1O[C@@H]2C[C@@H]3C(C)(C)CCC[C@]13[C@@H]1[C@@H](O)C[C@H]3C(=C)C(=O)[C@@]21[C@@H]3O")
4.97
>>> endpoint_result("C=C1C(=O)[C@]23[C@H](O)[C@H]1C[C@H](O)[C@H]2[C@]12CCCC(C)(C)[C@H]1C[C@H]3O[C@H]2O")
4.68

// pIC50 lookup, compound = C=C1C(=O)[C@]23[C@H](O)[C@H]1C[C@H](O)[C@H]2[C@]12CCCC(C)(C)[C@H]1C[C@H]3O[C@@H]2OCCc1cn(Cc2ccc(C)cc2)nn1 , result: 5.67

// pIC50 lookup, compound = C=C1C(=O)[C@]23[C@H](O)[C@H]1C[C@H](O)[C@H]2[C@]12CCCC(C)(C)[C@H]1C[C@H]3O[C@@H]2OCCn1cc(C2CC2)nn1 , result: 5.37

// pIC50 lookup, compound = C=C1C(=O)[C@]23[C@H](O)[C@H]1C[C@H](O)[C@H]2[C@]12CCCC(C)(C)[C@H]1C[C@H]3O[C@@H]2OCCc1cn(Cc2ccc(OC)cc2)nn1 , result: 5.59

// pIC50 lookup, compound = C=C1C(=O)[C@]23[C@H](O)[C@H]1C[C@H](O)[C@H]2[C@]12CCCC(C)(C)[C@H]1C[C@H]3O[C@@H]2OCCc1cn(Cc2cc(OC)c(OC)c(OC)c2)nn1 , result: 5.35
